Reference for the values: ChEMBL document CHEMBL1140041

Catalogue of Ki readings, one per entry.
Test: Displacement of [3H]flumazenil from GABAA receptor in Wistar rat cortical membrane
Assay type: cell membranes
All answers are understood in nM, so give the number only.

Query block: Quick one: Ki of Oc1ccc(-c2ccc3cc(O)ccc3[o+]2)cc1 ?
Result block: 1500

Query block: Quick one: Ki of Oc1ccc(-c2ccc3ccc(O)cc3[o+]2)cc1 ?
Result block: 280

Query block: Quick one: Ki of Oc1ccc2ccc(-c3ccccc3)[o+]c2c1 ?
Result block: 260

Query block: Quick one: Ki of COc1ccc2[o+]c(-c3ccc(O)cc3)ccc2c1 ?
Result block: 160

Query block: Quick one: Ki of COc1ccc2[o+]c(-c3ccccc3)ccc2c1 ?
Result block: 180
